Biological target: wild-type c-Kit receptor protein endogenously expressed in H526 cells (Homo sapiens)
Construct: wild-type c-Kit receptor protein that is endogenously expressed in H526 cells
Sequence (P10721 26-976): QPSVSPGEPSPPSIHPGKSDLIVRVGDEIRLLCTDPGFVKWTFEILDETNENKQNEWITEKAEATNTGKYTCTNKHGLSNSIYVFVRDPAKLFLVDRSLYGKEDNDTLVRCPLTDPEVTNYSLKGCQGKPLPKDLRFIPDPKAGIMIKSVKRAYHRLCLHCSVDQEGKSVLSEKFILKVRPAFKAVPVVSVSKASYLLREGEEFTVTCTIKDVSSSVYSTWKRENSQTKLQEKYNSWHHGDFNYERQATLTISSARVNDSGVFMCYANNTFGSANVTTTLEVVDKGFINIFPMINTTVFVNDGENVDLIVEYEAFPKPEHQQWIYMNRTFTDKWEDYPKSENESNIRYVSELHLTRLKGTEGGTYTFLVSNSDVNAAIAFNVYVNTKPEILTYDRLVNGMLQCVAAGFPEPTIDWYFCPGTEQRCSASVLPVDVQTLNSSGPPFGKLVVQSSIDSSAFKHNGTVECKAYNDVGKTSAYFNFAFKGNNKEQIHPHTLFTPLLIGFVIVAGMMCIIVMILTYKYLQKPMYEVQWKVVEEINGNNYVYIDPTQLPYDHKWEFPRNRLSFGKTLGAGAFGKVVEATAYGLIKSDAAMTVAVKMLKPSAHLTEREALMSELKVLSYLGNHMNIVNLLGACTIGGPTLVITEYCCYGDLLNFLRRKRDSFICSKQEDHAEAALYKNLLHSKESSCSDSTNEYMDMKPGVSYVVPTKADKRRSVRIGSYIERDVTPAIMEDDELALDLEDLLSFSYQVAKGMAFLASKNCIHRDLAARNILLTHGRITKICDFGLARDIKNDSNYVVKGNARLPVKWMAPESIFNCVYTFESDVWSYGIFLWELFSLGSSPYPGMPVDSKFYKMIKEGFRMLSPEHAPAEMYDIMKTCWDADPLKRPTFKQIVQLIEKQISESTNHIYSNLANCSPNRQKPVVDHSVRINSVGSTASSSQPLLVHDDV
Assay: Assay for inhibition of c-Kit in intact cells (cell-based ELISA of SCF-induced tyrosine phosphorylation)
Details: read-out: results in the assay above (IC50, inhibition of SCF-induced tyrosine phosphorylation of c-Kit)
MEASUREMENT_NAME: IC50

| STRUCTURE_SMILES | TESTED_ON | ENDPOINT_RESULT |
| --- | --- | --- |
| O=C(NCc1cccnc1)c1ccc2c(c1)ncn2-c1ccc(OCCOc2ncc(C(F)(F)F)cc2Cl)cc1 | wild-type c-Kit receptor protein endogenously expressed in H526 cells (Homo sapiens) | > 10 µM |
| O=C(NCc1cccnc1)c1ccc2c(c1)ncn2-c1cccc(NS(=O)(=O)c2cccc(Cl)c2)c1 | wild-type c-Kit receptor protein endogenously expressed in H526 cells (Homo sapiens) | > 10 µM |

Source: patent US7521448B2
